Target: Glycogen synthase kinase-3 alpha (Homo sapiens);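 also: each figure is a mean percent inhibition of GSK3A activity, from a screen of the GSK published kinase inhibitor set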
Conditions: at 1 µM
Here the recorded inhibition is given for each entry.
Quantity Measured: inhibition (%)

INSERT INTO results (entry_smiles, quantity_measured, measurement) VALUES
  ('ON=C1CCc2cc(-c3nc(C4CCNCC4)[nH]c3-c3ccncc3)ccc21', 'inhibition', 5.93),
  ('CCS(=O)(=O)c1ccc(OC)c(Nc2ncc(-c3cccc(OC)c3)o2)c1', 'inhibition', 9.4),
  ('Nc1ccc(C#Cc2cncnc2Nc2ccc(OCc3cccc(F)c3)c(Cl)c2)cc1', 'inhibition', 1.4),
  ('[O-][S+]1CCN(Cc2ccc(-c3ccc4ncnc(Nc5ccc(OCc6ccccc6)c(Cl)c5)c4c3)o2)CC1', 'inhibition', 1.03),
  ('COc1cc2ncn(-c3cc(OCc4ccccc4S(C)(=O)=O)c(C#N)s3)c2cc1OC', 'inhibition', 11.3),
  ('COc1cccc(-n2nc(C)c3c(N/N=C(\C)c4ccncc4)ncnc32)c1', 'inhibition', 11.6),
  ('Cc1ccc(C(=O)NC2CC2)cc1-c1ccc2[nH]ncc2c1', 'inhibition', 1.83),
  ('N#Cc1c(NC(=O)c2ccccc2F)sc2c1CCCC2', 'inhibition', 0.03),
  ('CN(c1ccc(NC(=O)Nc2ccc(OC(F)(F)F)cc2)cc1)c1ccnc(Nc2cccc(S(N)(=O)=O)c2)n1', 'inhibition', 9.4),
  ('CN(C)C(=O)O[C@@H]1CN[C@@H](C#Cc2cc3ncnc(Nc4ccc(OCc5cccc(F)c5)c(Cl)c4)c3s2)C1', 'inhibition', 8.31),
  ('Nc1nccc(-c2c(-c3ccc(F)cc3)nn3cc(C(F)(F)F)ccc23)n1', 'inhibition', -0.65),
  ('CCn1c(-c2nonc2N)nc2c(C#CC(C)(C)O)nc(OCCNC)cc21', 'inhibition', 49.9),
  ('COc1cc2ncnc(Nc3ccc4c(cnn4Cc4ccccc4)c3)c2cc1OC', 'inhibition', 6.57),
  ('CC(C)c1ccc(Nc2nccc(-c3cnn4ncccc34)n2)cc1', 'inhibition', 76),
  ('CN(C)c1cc2c(Nc3ccc4c(cnn4Cc4ccccc4)c3)ncnc2cn1', 'inhibition', 5.95),
  ('Cc1ccc(O)cc1Nc1ccnc2ccc(S(C)(=O)=O)cc12', 'inhibition', 1.72),
  ('COc1cc(Nc2nccc(-c3cnn4ncccc34)n2)cc(OC)c1', 'inhibition', 86.8);
